FYI, the data here is from patent US20230414780A1.

# TARGET DESC: T1, rhesus monkey TfR ectodomain fused to a mouse IgG1 Fc fragment (rhesus monkey, UniProt I0FKY7 89-760)
# T1 construct: extracellular domain; not shown: mouse IgG1 Fc fragment
# EXPERIMENT DESCRIPTION: SPR, kinetic
# Description: Binding properties of some VHHs were also evaluated using Surface Plasmon Resonance (SPR) experiments. The human, mouse and rhesus monkey TfR (having respectively GeneBank number NM_003234.2, NM_011638, NC_041755.1) ectodomains were fused to the N-terminal end of a mouse IgG1 Fc fragment and the recombinant proteins were produced and purified in-house. Interaction of VHHs with the receptors was tested using a Biacore T200 (GE Healthcare). […]

BINDER	UNITS SYMBOL	kon
B8^V33 (VHH) VHH: EVQLVESGGGVVQPGGSLRLSCAASGEIFSINFMRWYRQAPGKQREWVAGFTRDGSTNYPDSAKGRFTISRDNAKNTVYLQIDSLKPEDTAVYYCYMLKTWGQGTQVTVSS	M⁻¹ s⁻¹	693000
VHH A (C5) (VHH, form with the C-terminal myc-His6 tag (x = 1), since the VHHs were detected with anti-6His or anti-cMyc; the same holds for m12 to m126) VHH: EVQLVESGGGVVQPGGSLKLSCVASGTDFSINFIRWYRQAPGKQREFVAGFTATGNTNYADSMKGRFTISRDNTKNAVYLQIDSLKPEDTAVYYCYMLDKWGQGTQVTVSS	M⁻¹ s⁻¹	1.55e+06
B8^V40 (VHH) VHH: EVQLVESGGGVVQPGGSLRLSCAASGEIKSINFMRWYRQAPGKQREWVSGFTRDGSTNYPDSAKGRFTISRDNAKNTVYLQIDSLKPEDTAVYYCYMLDTWGQGTQVTVSS	M⁻¹ s⁻¹	575000
B8^V16 (VHH) VHH: EVQLVESGGGVVQPGGSLRLSCAASGEIFSINFMRWYRQAPGKQREQVAGFTRDGSTNYPDSAKGRFTISRDNAKNTVYLQIDSLKPEDTAVYYCYMLDTWGQGTQVTVSS	M⁻¹ s⁻¹	325000
